// provenance: the supplement of paper PMC10065799

# System: c-Src
# METHOD NOTES: phosphorylation enrichment, bacterial display (enrichment ratio); higher = better substrate or ligand; peptides without Tyr show the background;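 note: 11-residue human phosphosite peptides and single-mutation variants displayed on the E. coli surface, counted by deep sequencing, each peptide's frequency after selection divided by its frequency in the unselected input library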;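 note: frequency after pTyr selection over input frequency; kinase dosed for 20-30% of maximal phosphorylation in three min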
MEASURE NAME: phosphorylation enrichment
Answer with a number only.

EGNEQYEGYCV [GRIA3_Y451_R450Q]	0.506
VVEDGYEFFAK [PPP1CB_Y254]	0.504
KFDLMYAKLAF [TUBA1A_Y399_R402L]	3.04
DGMADCSDPSF [CDC5L_Y459_Y459C_YF]	0.582
EYQKKYSDADI [CKAP5_Y1860_K1857Q]	0.45

Query block: Complete the entry with phosphorylation enrichment for ISIFFYAKGQP [MPZ_Y82_H81Y_YF]
Result block: 0.548

Query block: Complete the entry with phosphorylation enrichment for SSSGAYGGGFG [KRT19_Y61_YF]
Result block: 0.452

Query block: Complete the entry with phosphorylation enrichment for LRYEVYGGENE [STOX1_Y610]
Result block: 0.77

Query block: Complete the entry with phosphorylation enrichment for PRIKTYMRPSP [TDP1_Y497_H493R]
Result block: 0.474

Query block: Complete the entry with phosphorylation enrichment for QKMADYSNKLH [PDPR_Y104_Y109H]
Result block: 0.706

----------
# Test system: Fer (mouse)
# METHOD NOTES: phosphorylation enrichment, bacterial display (enrichment ratio); higher = better substrate or ligand; peptides without Tyr show the background
The reader will find reported phosphorylation enrichment values listed item by item below.
Answer with a number only.

The cases that follow already have their phosphorylation enrichment on record.
SYKNKYGMVAQ [APOB_Y276]	0.398
PESCFYKESWL [IQGAP2_Y630_L629F]	0.973
SFCFRYRCAAR [SUMF1_Y344_YF]	0.472
GKPENYRRLDI [VHL_Y175_V170G]	0.301
ENKGVYVLMSG [IVD_Y277]	0.599

Query block: Complete the entry with phosphorylation enrichment for HKANEYYPVVL [ADAMTS18_Y764]
Result block: 2.6

Query block: Complete the entry with phosphorylation enrichment for TKDTFYKQPVF [GBA_Y451_M455V]
Result block: 0.308

Query block: Complete the entry with phosphorylation enrichment for RLMLQYDAVVN [SLC25A32_Y152]
Result block: 0.662

Query block: Complete the entry with phosphorylation enrichment for RAMRRYLEWGE [ERBB3_Y680_R683W]
Result block: 0.834

Query block: Complete the entry with phosphorylation enrichment for RLGDLYKEEMR [VIM_Y150_E151K]
Result block: 0.43

Query block: Complete the entry with phosphorylation enrichment for ENAGYYFQVSA
Result block: 0.595

Query block: Complete the entry with phosphorylation enrichment for FFCKFYNKSED [RYR1_Y4864_R4861C]
Result block: 0.598

Query block: Complete the entry with phosphorylation enrichment for LANNEYFFQVC
Result block: 0.939

----------
# SYSTEM UNDER TEST: Fes (UniProt P07332)
# Sequence (P07332 whole entry, looked up): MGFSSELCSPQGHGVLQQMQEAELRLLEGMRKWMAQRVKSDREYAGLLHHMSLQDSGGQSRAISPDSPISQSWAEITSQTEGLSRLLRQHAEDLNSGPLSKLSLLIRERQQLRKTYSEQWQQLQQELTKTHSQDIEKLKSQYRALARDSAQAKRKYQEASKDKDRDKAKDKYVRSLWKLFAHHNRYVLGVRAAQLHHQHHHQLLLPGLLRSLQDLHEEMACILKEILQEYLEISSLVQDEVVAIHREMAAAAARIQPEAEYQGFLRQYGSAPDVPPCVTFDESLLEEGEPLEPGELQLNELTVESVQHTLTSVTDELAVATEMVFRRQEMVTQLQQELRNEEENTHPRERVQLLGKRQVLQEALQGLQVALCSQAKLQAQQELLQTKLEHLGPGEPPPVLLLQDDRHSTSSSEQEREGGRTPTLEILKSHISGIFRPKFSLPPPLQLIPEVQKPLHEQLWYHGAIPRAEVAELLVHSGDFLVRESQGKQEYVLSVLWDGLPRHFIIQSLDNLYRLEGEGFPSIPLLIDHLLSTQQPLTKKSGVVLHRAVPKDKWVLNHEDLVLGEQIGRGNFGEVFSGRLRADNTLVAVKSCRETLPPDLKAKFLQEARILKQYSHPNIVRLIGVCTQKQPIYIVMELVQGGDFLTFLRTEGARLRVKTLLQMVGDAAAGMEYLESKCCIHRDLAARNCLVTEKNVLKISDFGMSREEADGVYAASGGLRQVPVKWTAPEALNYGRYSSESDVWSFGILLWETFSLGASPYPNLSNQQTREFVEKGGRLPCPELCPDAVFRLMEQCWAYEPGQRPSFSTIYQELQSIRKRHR
# METHOD NOTES: phosphorylation enrichment, bacterial display (enrichment ratio); higher = better substrate or ligand; peptides without Tyr show the background
Would you mind sorting the entries by phosphorylation enrichment according to these classes? 1 = under 0.8, 2 = from 0.8 up to 1, 3 = 1 and over

Consider the following illustrative entries.
QKMADYSNKLH [PDPR_Y104_Y109H]	2
DFPMGYPSFLA [TBCK_Y153_I151M_YF]	2
AKLVQYFMEHH [PTPN11_Y80_E76K_YF]	2
YIRKDYEACKA [BBS4_Y48]	1

Query block: # bin lookup: classify IHRWVYPLTPE [EIF2B5_Y319_R315H] by its phosphorylation enrichment
Result block: 2

Query block: # bin lookup: classify FLGEEYVKAVG [TF_Y674_YF] by its phosphorylation enrichment
Result block: 2

Query block: # bin lookup: classify KTNVSYFGALD [CACNB4_Y103_C104F] by its phosphorylation enrichment
Result block: 2

Query block: # bin lookup: classify LRYDSYSSYCN [SLC20A2_Y433] by its phosphorylation enrichment
Result block: 3

Query block: # bin lookup: classify FDSPFYQDSLP [TSC1_Y508_R509Q] by its phosphorylation enrichment
Result block: 3

Query block: # bin lookup: classify IKKLIYVHLVI [JAGN1_Y42] by its phosphorylation enrichment
Result block: 3

Query block: # bin lookup: classify IFGVSYGEFRF [CFTR_Y512_D513G_YF] by its phosphorylation enrichment
Result block: 3

Query block: # bin lookup: classify EGNEQYEGYCV [GRIA3_Y451_R450Q] by its phosphorylation enrichment
Result block: 3

Query block: # bin lookup: classify QTEAPYRFIFM [PTPN11_Y511_Q510P_YF] by its phosphorylation enrichment
Result block: 3

Query block: # bin lookup: classify EFKDAYTFAAD [BRDT_Y335_K336T_YF] by its phosphorylation enrichment
Result block: 2

Query block: # bin lookup: classify KSELAYEIFDK [MYOM2_Y1024] by its phosphorylation enrichment
Result block: 3

Query block: # bin lookup: classify SVVVPNEPPEV [TP53_Y220_Y220N] by its phosphorylation enrichment
Result block: 3

Query block: # bin lookup: classify AARVSYRLASG [DCHS1_Y1582] by its phosphorylation enrichment
Result block: 1

Query block: # bin lookup: classify AKAFIYASHIV [ZNF573_Y229_G224A] by its phosphorylation enrichment
Result block: 3

Query block: # bin lookup: classify KVGRVYLFLQP [ITGA2B_Y360_E355K] by its phosphorylation enrichment
Result block: 3

Query block: # bin lookup: classify CTTIHYHYMCN [TP53_Y234_N235H] by its phosphorylation enrichment
Result block: 2
